Cited source: patent US10435399B2

- SYSTEM_UNDER_TEST: HDAC6 enzyme (Homo sapiens, UniProt Q9UBN7)
- Construct: transducing full length HDAC6 gene into Sf-9 insect cells; GST; purchased SignalChem; host or cells: Sf-9 insect cells
- Sequence (Q9UBN7 whole entry): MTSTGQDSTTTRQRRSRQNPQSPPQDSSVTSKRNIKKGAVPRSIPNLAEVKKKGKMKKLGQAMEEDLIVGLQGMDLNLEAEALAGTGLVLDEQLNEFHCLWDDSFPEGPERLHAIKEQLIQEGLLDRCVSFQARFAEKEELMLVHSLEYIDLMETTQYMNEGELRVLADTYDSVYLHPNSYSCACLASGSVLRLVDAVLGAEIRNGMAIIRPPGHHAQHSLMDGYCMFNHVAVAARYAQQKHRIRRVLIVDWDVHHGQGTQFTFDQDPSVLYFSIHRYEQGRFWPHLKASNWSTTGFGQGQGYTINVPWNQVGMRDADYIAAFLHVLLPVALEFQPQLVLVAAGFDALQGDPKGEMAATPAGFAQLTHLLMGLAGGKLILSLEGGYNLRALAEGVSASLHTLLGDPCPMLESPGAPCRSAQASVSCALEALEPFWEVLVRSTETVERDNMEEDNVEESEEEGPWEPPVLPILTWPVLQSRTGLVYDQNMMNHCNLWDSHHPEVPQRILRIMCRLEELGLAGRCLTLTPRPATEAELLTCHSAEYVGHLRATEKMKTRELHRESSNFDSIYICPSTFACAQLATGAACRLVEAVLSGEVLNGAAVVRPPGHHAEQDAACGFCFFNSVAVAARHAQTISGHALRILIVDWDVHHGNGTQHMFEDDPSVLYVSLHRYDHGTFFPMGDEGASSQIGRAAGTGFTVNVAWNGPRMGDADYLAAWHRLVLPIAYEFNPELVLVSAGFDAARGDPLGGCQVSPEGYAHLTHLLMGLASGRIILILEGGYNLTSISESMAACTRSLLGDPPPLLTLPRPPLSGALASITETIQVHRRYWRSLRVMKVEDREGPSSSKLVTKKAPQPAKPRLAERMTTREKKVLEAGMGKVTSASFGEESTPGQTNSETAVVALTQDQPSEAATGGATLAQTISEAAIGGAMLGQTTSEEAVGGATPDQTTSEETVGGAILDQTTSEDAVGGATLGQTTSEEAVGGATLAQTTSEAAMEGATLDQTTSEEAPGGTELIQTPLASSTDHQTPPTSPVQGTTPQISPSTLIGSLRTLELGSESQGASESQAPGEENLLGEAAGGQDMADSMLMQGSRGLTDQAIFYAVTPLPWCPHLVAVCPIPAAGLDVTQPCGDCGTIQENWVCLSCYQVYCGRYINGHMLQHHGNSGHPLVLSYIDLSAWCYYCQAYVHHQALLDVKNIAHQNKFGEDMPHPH
- ASSAY_PROCEDURE: HDAC6 enzyme inhibitory activity (HDAC-Glo I/II Assay kit)
- Assay type: biochemical
- TEST_PARAMETERS: 10 μM; wells without enzyme = 100% inhibition; read-out: HDAC6 inhibitory rate (%) (10 μM)
MEASURED_PROPERTY: inhibition at 10 µM

> print(dat)
                           molecular.string  result
1  N#Cc1cccc(-c2c(Cl)cccc2N2Cc3ccc(-c4nnc(C(F)F)o4)cc3C2=O)c1     99%
2  O=C1c2cc(-c3nnc(C(F)F)o3)cc(F)c2CN1[C@@H]1CCOC[C@H]1NCC(F)(F)F    103%
3  O=C(CC1CCC1)N[C@@H]1CCCC[C@H]1N1Cc2ccc(-c3nnc(C(F)F)o3)cc2C1=O     98%
4  O=C1c2cc(-c3nnc(C(F)F)o3)ccc2CN1Cc1cncc(C(F)(F)F)c1     97%

---

Measured inhibition at 10 µM values are reported for all entries that follow.
- SYSTEM_UNDER_TEST: HDAC6 enzyme (Homo sapiens)
- Construct: transducing full length HDAC6 gene into Sf-9 insect cells; GST; purchased SignalChem; host or cells: Sf-9 insect cells
- ASSAY_PROCEDURE: HDAC6 enzyme inhibitory activity (HDAC-Glo I/II Assay kit)
- Format: biochemical
- TEST_PARAMETERS: 10 μM; wells without enzyme = 100% inhibition; read-out: HDAC6 inhibitory rate (%) (10 μM)
- Procedure: HDAC6 enzyme prepared by transducing full length HDAC6 gene into Sf-9 insect cells and purifying by GST affinity column were purchased from SignalChem. Using this enzyme, HDAC6 enzyme inhibitory activities of the compound of the present invention were evaluated. Enzymes were used after preserved at −70° C. HDAC6 enzyme inhibitory activity of the compound of the present invention was measured using HDAC-Glo™ I/II Assay kit (Promega) according to the following experimental method. […]
MEASURED_PROPERTY: inhibition at 10 µM (%)

> print(dat)
                                    compound    measured.property  quantitative.readout
 1  O=C1c2cc(-c3nnc(C(F)F)o3)ccc2CN1[C@@H]1CCCC[C@H]1n1ccnn1  inhibition at 10 µM                   101
 2  O=C1c2cc(-c3nnc(C(F)F)o3)ccc2CN1[C@@H]1CCCC[C@H]1NC(=O)C1(c2ccccc2)CCC1  inhibition at 10 µM                   100
 3  CC(C)(F)C(=O)N[C@@H]1CCCC[C@H]1N1Cc2ccc(-c3nnc(C(F)F)o3)cc2C1=O  inhibition at 10 µM                    99
 4  O=C(c1cccc(-c2ccccc2N2Cc3ccc(-c4nnc(C(F)F)o4)cc3C2=O)c1)N1CCCC1  inhibition at 10 µM                   100
 5  Cn1cc(-c2cccc3ccnn23)c(N2Cc3ccc(-c4nnc(C(F)F)o4)cc3C2=O)n1  inhibition at 10 µM                    98
 6  O=C(NCC(F)(F)F)C1CC(F)(F)CCN1N1Cc2ccc(-c3nnc(C(F)F)o3)cc2C1=O (stereo not shown)  inhibition at 10 µM                   100
 7  N#Cc1cccc(-c2ccccc2N2Cc3ccc(-c4nnc(C(F)F)o4)cc3C2=O)c1  inhibition at 10 µM                   101
 8  N#Cc1cccc(-c2cc(F)ccc2N2Cc3ccc(-c4nnc(C(F)F)o4)cc3C2=O)c1  inhibition at 10 µM                   100
 9  Cc1ccc(C2CCCCN2N2Cc3ccc(-c4nnc(C(F)F)o4)cc3C2=O)cn1 (stereo not shown)  inhibition at 10 µM                   100
10  CC(=O)N1CCC(C2CCCCN2N2Cc3ccc(-c4nnc(C(F)F)o4)cc3C2=O)CC1 (stereo not shown)  inhibition at 10 µM                   101
11  O=C1c2cc(-c3nnc(C(F)F)o3)ccc2CN1[C@@H]1CCOC[C@H]1NCC(F)(F)F  inhibition at 10 µM                   101
12  O=C1c2cc(-c3nnc(C(F)F)o3)cnc2CN1[C@@H]1CCCC[C@H]1NC(=O)C(F)(F)C1CC1  inhibition at 10 µM                   100
13  CC(C)(C)OC(=O)N1CC(F)(F)C[C@H]1CN1Cc2c(F)cc(-c3nnc(C(F)F)o3)cc2C1=O  inhibition at 10 µM                    97
14  O=C1c2cc(-c3nnc(C(F)F)o3)cc(F)c2CN1C[C@H]1CC(F)(F)CN1S(=O)(=O)CC(F)(F)F  inhibition at 10 µM                    98
15  COC(=O)N[C@@H]1CCCC[C@H]1N1Cc2ccc(-c3nnc(C(F)F)o3)cc2C1=O  inhibition at 10 µM                    99
16  O=C1c2cc(-c3nnc(C(F)F)o3)ccc2CN1Cc1ccccn1  inhibition at 10 µM                    96
17  O=C1c2cc(-c3nnc(C(F)F)o3)ccc2CN1[C@@H]1CCCC(F)(F)[C@@H]1NC(=O)C(F)(F)C(F)F  inhibition at 10 µM                   100
18  O=C1c2cc(-c3nnc(C(F)F)o3)ccc2CN1c1ccccc1-c1ccccc1F  inhibition at 10 µM                    97
19  CCc1cnn(-c2cc(F)ccc2N2Cc3ccc(-c4nnc(C(F)F)o4)cc3C2=O)c1  inhibition at 10 µM                   100
20  O=C1c2cc(-c3nnc(C(F)F)o3)ccc2CN1[C@@H]1CCCC[C@H]1NC(=O)C(F)(F)C(F)(F)F  inhibition at 10 µM                   101
21  O=C1c2cc(-c3nnc(C(F)F)o3)ccc2CN1[C@H]1CCCC[C@H]1n1cccn1 (racemic) [Example 527]  inhibition at 10 µM                    99
22  COC(=O)N[C@@H]1CCCC[C@H]1N1Cc2ncc(-c3nnc(C(F)F)o3)cc2C1=O  inhibition at 10 µM                    99
23  COCCOc1ccccc1-c1ccccc1N1Cc2ccc(-c3nnc(C(F)F)o3)cc2C1=O  inhibition at 10 µM                    97
24  O=C1c2cc(-c3nnc(C(F)F)o3)cnc2CN1Cc1ccccc1F  inhibition at 10 µM                    98
25  O=C(N[C@@H]1CCCC[C@H]1N1Cc2ccc(-c3nnc(C(F)F)o3)cc2C1=O)C(F)F  inhibition at 10 µM                   100
26  O=C(N[C@@H]1CCCC[C@H]1N1Cc2ccc(-c3nnc(C(F)F)o3)cc2C1=O)C1CCC(F)(F)CC1  inhibition at 10 µM                    96
27  O=C1c2cc(-c3nnc(C(F)F)o3)cnc2CN1[C@@H]1CCCC[C@H]1N1C(=O)c2ccccc2C1=O  inhibition at 10 µM                   101
28  O=C1c2cc(-c3nnc(C(F)F)o3)ccc2CN1c1ccccc1-c1cnn(C2CCOCC2)c1  inhibition at 10 µM                    86
29  O=C1c2cc(-c3nnc(C(F)F)o3)ccc2CN1c1ccccc1-c1ccccc1Cl  inhibition at 10 µM                    98
30  O=C1c2cc(-c3nnc(C(F)F)o3)ccc2CN1[C@@H]1CCCC[C@H]1c1noc(C2CC2)n1 (racemic)  inhibition at 10 µM                    99
31  CNC(=O)O[C@@H]1CCCC[C@H]1N1Cc2ccc(-c3nnc(C(F)F)o3)cc2C1=O  inhibition at 10 µM                    98
